Biological target: Histamine H1 receptor (Cavia porcellus)
Assay: In vitro agonist activity at histamine H1 receptor in guinea pig ileum assessed as contractile response relative to histamine in presence of atropine
Type: tissue-based
Kindly return 1 if reported Activity is no lower than 20%; return 0 if it is lower.

Consider the following illustrative entries.
API: above_or_equal(metric=Activity, cutoff=20%) for item CC(CN)c1cnc[nH]1.Cl (centres undefined) 0

CNCCc1[nH]cnc1C.Cl ? 0

And what about the compound Cc1ncc(CCN)[nH]1.Cl ? 0

Now consider Cl.Cl.Cn1cnc(CCN)c1 [N-METHYLHISTAMINE DIHYDROCHLORIDE] and answer again. 0

Likewise for CNCCc1cnc[nH]1.Cl ? 1

Continuing:
Determine whether this compound has Activity no lower than 20%: CN(C)CCc1cnc[nH]1.Cl 1

Next record, please: Cc1nc[nH]c1CCN(C)C.Cl 0

Same lookup for Cc1nc[nH]c1CCN.Cl , please. 0

Repeat for the following compound: Cl.Cn1cncc1CCN 0
